As shown below, each of these binders has a reported OD450 value.
# System under test: T1, human MSLN-FL-his protein (human, UniProt Q13421 296-580)
# T1 construct: Made in HEK293E cells, purified on nickel column; it is put last here; also called human MSLN full-length protein; hMSLN-FL-his; not shown: His tag
# T1 sequence (Q13421 other isoform, or with tags, fused parts or gaps): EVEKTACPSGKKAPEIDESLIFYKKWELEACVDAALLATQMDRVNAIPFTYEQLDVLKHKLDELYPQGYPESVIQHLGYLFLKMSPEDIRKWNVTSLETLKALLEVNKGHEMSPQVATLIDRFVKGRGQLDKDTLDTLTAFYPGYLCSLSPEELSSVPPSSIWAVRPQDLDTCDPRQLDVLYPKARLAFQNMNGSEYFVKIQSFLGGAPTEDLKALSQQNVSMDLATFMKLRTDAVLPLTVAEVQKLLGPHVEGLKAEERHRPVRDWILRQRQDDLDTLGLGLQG
# Protocol text: ELISA on coated antigen, antibody 0.1 nM
The response must be a number in OD with no trailing unit.

Before answering, review these 2 worked examples.
binder="S009-F8-36.12 (antibody, human IgG1, kappa, V domains shown, Human-murine chimeric antibody, human IgG1 heavy and kappa light constant regions) VH: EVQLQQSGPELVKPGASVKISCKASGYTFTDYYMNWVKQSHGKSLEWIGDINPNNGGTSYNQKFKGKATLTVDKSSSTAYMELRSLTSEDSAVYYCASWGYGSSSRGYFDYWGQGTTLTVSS VL: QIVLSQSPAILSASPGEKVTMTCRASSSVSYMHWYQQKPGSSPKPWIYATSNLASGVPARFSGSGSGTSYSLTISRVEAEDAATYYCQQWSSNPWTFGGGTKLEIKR" measure=OD450 experimental_value=0.73
binder="S009-F8-27.1 (antibody, human IgG1, kappa, V domains shown, Human-murine chimeric antibody, human IgG1 heavy and kappa light constant regions) VH: EVQLVESGGGLVKPGGSLKLSCAASGFTFSSYAMSWVRQTPEKRLEWVATISDGGNYTYYPDNVKGRFTISRDNAKNNLYLQMSHLKSEDTAMYYCAGDRGYPYAMDSWGQGTSVTVSS VL: NIMMTQSPSSLAVSAGEKVTMSCKSSQSVLYSSNQKNYLAWYQQKPGQSPKLLIYWASTRESGVPDRFTGSGSGTDFTLTISNVHAEDLAVYYCHQYLSSLTFGAGTKLELKR" measure=OD450 experimental_value=1.34

[ask] What does the data say about its OD450? Entry: S009-F8-22.23 (antibody, human IgG1, kappa, V domains shown, Human-murine chimeric antibody, human IgG1 heavy and kappa light constant regions) VH: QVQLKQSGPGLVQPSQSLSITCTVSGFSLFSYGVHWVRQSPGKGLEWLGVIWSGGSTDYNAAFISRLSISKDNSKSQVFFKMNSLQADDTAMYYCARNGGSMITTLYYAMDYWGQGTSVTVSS VL: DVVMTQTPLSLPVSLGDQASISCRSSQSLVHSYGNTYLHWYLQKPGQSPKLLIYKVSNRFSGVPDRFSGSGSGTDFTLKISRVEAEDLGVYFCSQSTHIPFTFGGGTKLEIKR
[reply] 1.71

[ask] What does the data say about its OD450? Entry: S009-F8-5.15 (antibody, human IgG1, kappa, V domains shown, Human-murine chimeric antibody, human IgG1 heavy and kappa light constant regions) VH: QVQLQQPGTELVKPGASVKLSCKASGYTFTSYWMHWVKQRPGQGLEWIGHSNPSNGGTNYNEKFKSKATLTVDKSSSTAYMQLSSLTSEDSAVYYCARWVRGSNYEYFDVWGTGTTVTVSS VL: DIVMTQSQKFMSTTVGDRVSIICKASQNVGSAVAWCQQKPGQSPKLLIYSASNRYTGVPDRFTGSGSGTDFTLTISNMQSEDLADYFCQQYSSYPLTFAGGTKLEIKR
[reply] 1.53

[ask] What does the data say about its OD450? Entry: S009-F8-28.23 (antibody, human IgG1, kappa, V domains shown, Human-murine chimeric antibody, human IgG1 heavy and kappa light constant regions) VH: EVQLVESGGDLVKPGGSLKLSCAASGFTFSSYAMSWVRQTPEKRLEWVATISDGGSYTYYPDNVEGRFTISRDNAKNNLYLQMSHLKSEDTAMYYCAGDRGYSYALDYWGQGTSVTVSS VL: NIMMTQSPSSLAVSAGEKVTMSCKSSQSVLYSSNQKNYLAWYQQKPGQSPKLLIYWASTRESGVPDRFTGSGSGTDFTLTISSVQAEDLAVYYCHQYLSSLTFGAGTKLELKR
[reply] 1.04

[ask] What does the data say about its OD450? Entry: S009-F8-4.5 (antibody, human IgG1, kappa, V domains shown, Human-murine chimeric antibody, human IgG1 heavy and kappa light constant regions) VH: QVQLQQPGAELVKPGASVKLSCKASGYTFTIYWMHWVKQRPGQGLEWIGMIHPNSGNTNYNEKFKSKATLTVDKSSSTAYMQLSSLTSEDSAVYYCSLIHWYFDVWGTGTTVTVSS VL: QIVLTQSPAIMSASPGEKVTMTCSASSSVSYMYWYQQKPGSSPRLLIYDTSNLASGVPVRFSGSGSGTSYSLTISRMEAEDAATYYCQQWSSYPLTFGAGTKLELKR
[reply] 1.31

[ask] What does the data say about its OD450? Entry: S009-F8-18.9 (antibody, human IgG1, kappa, V domains shown, Human-murine chimeric antibody, human IgG1 heavy and kappa light constant regions) VH: EFQLQQSGPELVKPGASVKISCKASGYSFTDYNMNWVKQSNGKSLEWIGIINPNYGTTSYNQKFKGRATLTVDQSSSTAYVQLNSLTSEDSAVYYCARGGYDNEAMDYWGQGTSVTVSS VL: QIVLTQSPAIMSASPGEKVTMTCSASSSVSYMHWYQQKSGTSPKRWIYDTSKLASGVPARFSGSGSGTSYSLTISSMEAEDAATYYCQQWSSNPPTFGAGTKLELKR
[reply] 1.93

[ask] What does the data say about its OD450? Entry: S009-F8-15.19 (antibody, human IgG1, kappa, V domains shown, Human-murine chimeric antibody, human IgG1 heavy and kappa light constant regions) VH: EFQLQQSGPELVKPGASVKISCKASGYSFTDYNMNWVKQSNGKSLEWIGIINPYYGTTSNNQNFKGKATLTVDQSSSTAYMQLNSLTSDDSAVYYCARWLRRDAMDYWGQGTSVTVSS VL: DIVMTPSHKFMSTSVGDRVSIACKASQDVGSSVAWYQQKPGQSPKLLIYWTSTRHTGVPDRFTGSGSGTDFTLTISNVQSEDLADYFCQQYSSYPWTFGGGTKLEIKR
[reply] 1.11

[ask] What does the data say about its OD450? Entry: S009-F8-33.12 (antibody, human IgG1, kappa, V domains shown, Human-murine chimeric antibody, human IgG1 heavy and kappa light constant regions) VH: EVQLQQSGAELVKPGASVKLSCTASAFNIKDYYMHWVKQRTEQGLEWIGRIDPEDGETKYAPKFQGKATITADTSSNTAYLQLSSLTSEDTAVYYCASGSGTGAMDYWGQGTSVTVSS VL: DIVMTQSQKFMSTSVGDRVSITCKASQNVRTAVGWYQQKPGQSPKALIYLASNRHTGVPDRFTGSGSGTDFTLTISNVQSEDLADYFCLQHWNSPYTFGGGTKLVIKR
[reply] 1.61

[ask] What does the data say about its OD450? Entry: S009-F8-24.14 (antibody, human IgG1, kappa, V domains shown, Human-murine chimeric antibody, human IgG1 heavy and kappa light constant regions) VH: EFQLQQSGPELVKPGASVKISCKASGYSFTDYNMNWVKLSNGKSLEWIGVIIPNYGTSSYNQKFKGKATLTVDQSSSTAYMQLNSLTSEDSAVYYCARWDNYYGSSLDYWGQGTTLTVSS VL: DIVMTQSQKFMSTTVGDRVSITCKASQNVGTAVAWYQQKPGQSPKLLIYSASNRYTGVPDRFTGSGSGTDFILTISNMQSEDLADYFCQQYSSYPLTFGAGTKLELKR
[reply] 2.02
